Experimental Conditions: plasma; Long term stability 3 months at − 80 °C; 900.00 ng/mL (HQC)
Attribute Measured: Measured concentration (ng/mL)

* C=C1CC[C@@H]2[C@](C)(CO)[C@H](O)CC[C@@]2(C)[C@@H]1/C=C/C1=CCOC1=O [AP3, 14-deoxy-11, 12-didehydroandrographolide] | 883.01
* C=C1CC[C@@H]2[C@](C)(CO[C@@H]3O[C@H](CO)[C@@H](O)[C@H](O)[C@H]3O)CCC[C@@]2(C)[C@@H]1CCC1=CCOC1=O [AP4, neoandrographolide] | 883.06
* C=C1CC[C@@H]2[C@](C)(CO)[C@H](O)CC[C@@]2(C)[C@@H]1CCC1=CCOC1=O [AP6, 14-deoxyandrographolide] | 890.25
* C=C1CC[C@@H]2[C@](C)(CO)[C@H](O)CC[C@@]2(C)[C@@H]1C/C=C1/C(=O)OC[C@H]1O [AP1, andrographolide] | 893.21
